For each entry below, report its IC50 value.
tested on: phosphorylation of H2AX (gH2AX) in U2OS-TopBP1-ER cells; assay: gH2AX-TopBP1ER cellular assay; format: cell-based; settings: Table 1, class symbols, 4-OHT

# IC50 (compound: "C[C@@H]1COC[C@H]2COc3c(nc(-c4c(F)cnc5[nH]ccc45)nc3C(C)(C)O)N21" ) is 100 to 1000 nM

# IC50 (compound: "CNc1nc2ccccc2n1-c1nc2c(c(C3(S(C)(=O)=O)CC3)n1)OC[C@@H]1COC[C@@H](C)N21" ) is 10 to 100 nM

# IC50 (compound: "CNc1nc2ccccc2n1-c1nc2c(c(C(C)(C)S(C)(=O)=O)n1)OC[C@@H]1COC[C@@H](C)N21" ) is < 10 nM

# IC50 (compound: "CNc1cnc2[nH]ccc2c1-c1nc2c(c(C(C)(C)O)n1)OC[C@@H]1COC[C@@H](C)N21" ) is 100 to 1000 nM

# IC50 (compound: "CNc1nccn1-c1nc2c(c(C(C)(C)S(C)(=O)=O)n1)OC[C@@H]1COC[C@@H](C)N21" ) is 100 to 1000 nM

# IC50 (compound: "CNc1nc2ccccc2n1-c1nc2c(c(C(C)(C)O)n1)OC[C@@H]1COC[C@@H](C)N21" ) is 100 to 1000 nM

# IC50 (compound: "CNc1cnc2[nH]ccc2c1-c1nc2c(c(C(C)(C)S(C)(=O)=O)n1)OC[C@@H]1COC[C@@H](C)N21" ) is 10 to 100 nM
